Hi there, I'd appreciate the recorded growth inhibition for every entry that follows.
- test.name: NCI Yeast Anticancer Drug Screen. Data for the sgs1 mgt1 strain (AID 161);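 note: 0% = growth of cultures given vehicle only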
- measurement.context: S. cerevisiae sgs1 mgt1 strain, at 5.0 µM (retest, dose inferred, filed as 0.5), stronger effect = higher value
This is part of a sample that, as a whole, favours compounds with a hit. Of some 79,000 tested, about 15% had one in any assay.
Give bare numbers, in %.

As a guide, the following entries are already answered.
[
  {
    "molecule": "CN1C(=O)CCC2[C@@H]3CC=C4C[C@@H](O)CC[C@]4(C)C3CC[C@@]21C (stereo partly drawn)",
    "growth inhibition / %": 1
  },
  {
    "molecule": "CC(=O)NCC1OC2COC(c3ccccc3)OC2C(NC(=O)c2ccccc2)C1OC(=O)c1ccccc1 (stereo not drawn)",
    "growth inhibition / %": -11
  },
  {
    "molecule": "O=C1OC(=O)c2cc([N+](=O)[O-])cc3cccc1c23",
    "growth inhibition / %": 3
  },
  {
    "molecule": "N#CN=[N+]([O-])c1ccc(C(=O)O)cc1",
    "growth inhibition / %": 96
  },
  {
    "molecule": "CCCCCCCCCCCC(=O)c1c(O)c2ccccc2oc1=O",
    "growth inhibition / %": 21
  },
  {
    "molecule": "CCCCCCCC[N+](C)(CCCCCCCC)CCCCCCCC",
    "growth inhibition / %": 98
  },
  {
    "molecule": "CN1CCCC(C(=O)OCC(=O)C2(O)CCC3C4CCC5=CC(=O)CCC5(C)C4C(O)CC32C)C1 (stereo not drawn)",
    "growth inhibition / %": -7
  },
  {
    "molecule": "CC1CCC(C(C)C)C(OC(=O)Nc2ccc(S(=O)(=O)N(C)C)cc2)C1 (stereo not drawn)",
    "growth inhibition / %": 46
  },
  {
    "molecule": "CCCCCCCCCCCCNCC#N",
    "growth inhibition / %": -2
  },
  {
    "molecule": "CCOC(=O)/C=C(\\CC(=O)OCC)C(=O)OCC",
    "growth inhibition / %": -1
  }
]

List growth inhibition for every entry below, keeping the order given.
1. CCc1cccc(CC)c1NC(=O)C(C#N)C1=C(Cl)C(=O)c2ccccc2C1=O (stereo not drawn)
2. COc1ccc2c(c1)[n+]([O-])c(-c1ccc(C)cc1)c(N)[n+]2[O-]

Result:
1. 73
2. 38

Record growth inhibition for all entries; do not skip any.
1. COc1ccc(CCCCI)cc1
2. O=[N+]([O-])c1ccc(CN2CCN(c3nccs3)CC2)cc1
3. CC(C)(C)/C=N/NS(=O)(=O)c1ccccc1

Result:
[-6, 1, -44]

// input: 3 molecules below; output: growth inhibition for each
1. CCCCOC(=O)c1ccc(S(=O)(=O)c2ccc(C(=O)OCCCC)cc2)cc1
2. C1CCC(CCCCc2nn[nH]n2)CC1
3. Nc1ccccc1C(=O)NCCc1c[nH]c2ccccc12

Result:
[5, -1, 4]

Answer for every listed entry: what is its growth inhibition? The entries follow.
1. CC(O)c1cccnc1 (stereo not drawn)
2. O=CC(=C\c1ccco1)/C(C=O)=C\c1ccco1
3. C=CCNCCC1CCCCCC1
4. CCc1ccc(C(=O)O)cc1

Result:
1. 4
2. 11
3. 7
4. -1

---

- test.name: NCI Yeast Anticancer Drug Screen. Data for the cln2 rad14 strain (AID 165);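 note: 0% = growth equal to vehicle treated cultures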
- measurement.context: S. cerevisiae cln2 rad14 strain, at 5.0 µM (retest, dose inferred, filed as 0.5)
This is part of a sample that, as a whole, favours compounds with a hit. Of some 79,000 tested, about 15% had one in any assay. Calls of active or inactive are those of the source. No stated cut-off is given here; in the data, active means growth inhibition above about 70%; inactive means the rest.
# valid calls are active, inactive; nothing else

[
  {
    "molecule": "CCCC(C)C/C(C)=C\\C(C)(C)C1CC(=O)N(CC)C1=O (configuration not stated)",
    "category.label": "inactive"
  },
  {
    "molecule": "COc1ccc(/C=C/C(C(=O)O)C(=O)O)cc1",
    "category.label": "inactive"
  },
  {
    "molecule": "CC(C)CC(CC(C)C)NCC(C)OC(=O)C(c1ccccc1)c1ccccc1 (configuration not stated)",
    "category.label": "inactive"
  },
  {
    "molecule": "Cc1cc(C)nc(NS(=O)(=O)c2ccc(Nc3c4ccccc4nc4c(C(=O)NC(CO)(CO)CO)cccc34)cc2)n1",
    "category.label": "inactive"
  },
  {
    "molecule": "CC(C)N(C(=O)C12C3C4C1C1C2C3C41I)C(C)C (configuration not stated)",
    "category.label": "inactive"
  }
]

Request: Returns: the outcome recorded for CCCCCCCCCCCCNCc1ccc(O)c(OC)c1 in this assay.
Result: active

Request: Record lookup: outcome of this test for OCC1CCCCCCCCCCC1 ?
Result: inactive

Request: What did this assay record as the result for O=C(NC1CCN(Cc2ccccc2)CC1)c1ccc(I)cc1 ?
Result: active

Request: # outcome recorded in this test, key = COc1cc(F)ccn1
Result: inactive

Request: How did this test come out for O=C(CN1CCCCC1)c1ccc(/C=C/c2ccc(Cl)cc2)cc1 ?
Result: inactive

Request: Which outcome did this test record for the molecule C=C(C)COc1cc(NC(=S)OC(C)C)ccc1Cl ?
Result: inactive

---

- test.name: NCI Yeast Anticancer Drug Screen. Data for the bub3 strain (AID 167)
- measurement.context: S. cerevisiae bub3 mutant strain, at 50.0 µM, stronger effect = higher value
- Procedure: Growth inhibition of yeast strains with defined genetic alterations is measured as a screen for potential anti-cancer activity. Selected strains with alterations in DNA damage repair or cell cycle control were exposed to compounds and growth inhibition was measured relative to vehicle treated controls. The strain used in this assay is bub3
Compounds without any hit were thinned out: in the full panel of roughly 79,000, 15% have a hit.
experimental.endpoint: growth inhibition (%)
Answers are plain numbers, in %.

Record excerpt, results attached:
[
  {
    "compound": "c1ccc(Nc2nnc3nc(-c4ccccc4)c(-c4ccccc4)nn23)cc1",
    "unit.spec": "%",
    "growth inhibition": 36.1
  },
  {
    "compound": "O=C1c2ccccc2-c2cc3ccccc3nc21",
    "unit.spec": "%",
    "growth inhibition": 61.3
  },
  {
    "compound": "Oc1cc2ccccc2c2c1ccc1ccccc12",
    "unit.spec": "%",
    "growth inhibition": 84
  },
  {
    "compound": "BrC1CCCCCC1",
    "unit.spec": "%",
    "growth inhibition": 37
  }
]

For the 8 compounds below, give their growth inhibition values.
1. COC(=O)/C(C#N)=C/c1cc(OC)c(O)cc1Br
2. Cc1ccc(N=Nc2ccc(N)c3ccccc23)c(S(N)(=O)=O)c1
3. CC(CCCN(C)Cc1ccccc1)Nc1ccnc2cc(Cl)ccc12 (configuration not stated)
4. Nc1nc(-c2ccccn2)cc2cc(Cl)ccc12
5. O=c1[nH]c2ccc([N+](=O)[O-])cc2c2ccc(Cl)cc12
6. Cc1cc2ccc(N)nc2[nH]c1=O
7. CCOC1(OCC)Cc2nc3ccccc3cc21
8. CCN(CC)CCCNc1c2c(Cl)cc(Cl)cc2nc2nc(=O)[nH]c(C)c12

Result:
[46.5, 22.2, 99.5, 8.05, 7.4, 12.7, 96.7, 34.5]

---

- test.name: NCI Yeast Anticancer Drug Screen. Data for the cln2 rad14 strain (AID 165);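 note: 0% = growth equal to vehicle treated cultures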
- measurement.context: S. cerevisiae cln2 rad14 strain, at 5.0 µM (retest, dose inferred, filed as 0.5)
The panel holds about 79,000 compounds, 15% with a hit somewhere; the sample as a whole holds those more often. Activity calls are given as the source filed them. Cut-off read from the data, not from the text of the source: active = growth inhibition above about 70%; inactive = the rest.
Assign a class; possible classes are true (1) for active, false (0) for inactive

[
  {
    "compound": "O=C(/N=C1\\N=Nc2nc(C(C(=O)c3cccs3)c3nc4n(c3O)/C(=N/C(=O)Nc3ccc(Cl)cc3)N=N4)c(O)n21)Nc1ccc(Cl)cc1 (stereo unspecified)",
    "category.label": "false (0)"
  }
]

Request: Returns: the outcome recorded for Nc1c(NCc2ccccc2)ccc2ncccc12 in this assay.
Result: false (0)

---

- test.name: NCI Yeast Anticancer Drug Screen. Data for the sgs1 mgt1 strain (AID 161);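 note: 0% = growth of cultures given vehicle only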
- measurement.context: S. cerevisiae sgs1 mgt1 strain, at 50.0 µM (retest, dose inferred, filed as 5.0), stronger effect = higher value
About 79,000 compounds went through this panel and 15% of them were active in at least one assay; those are over-represented in the sample as a whole. Where a SMILES comes first, the peptide text is derived from it. Bridges are numbered along the chain shown (N, C = ends). [ ]: non-standard residue; d: D form. NMeV = CN[CH](C(=O)O)C(C)C; Sar = CNCC(=O)O
experimental.endpoint: growth inhibition (%)
One number for each entry, in %.

Previously resolved entries follow.
[
  {
    "compound": "Cc1cc(O)c(/C=N/c2nc(-c3cccc([N+](=O)[O-])c3)cs2)c(=O)o1",
    "quantitative.result": 100
  },
  {
    "compound": "CC(C)C1NC(=O)C(N)C(C)OC(=O)C(C(C)C)N(C)C(=O)CN(C)C(=O)C2CCCN2C1=O (stereo unspecified) (tested in a mixture with another compound) (H-TVP[Sar][NMeV]; ester 1-C; configuration not given here)",
    "quantitative.result": 91
  },
  {
    "compound": "CC1CCN(CCOC(=O)C(c2ccccc2)C2C=CCCC2)C1C (stereo unspecified)",
    "quantitative.result": 80
  },
  {
    "compound": "CC(N)C1C(C)CC2C3CC=C4CC(O)CCC4(C)C3CCC21C (stereo unspecified)",
    "quantitative.result": -19
  },
  {
    "compound": "O=c1ccnc(Sc2ccc([N+](=O)[O-])cc2[N+](=O)[O-])[nH]1",
    "quantitative.result": 87
  },
  {
    "compound": "S=c1sc2ccccc2n1C=Nc1ccccc1",
    "quantitative.result": 96
  },
  {
    "compound": "O=[N+]([O-])c1ccc(CN2CCN(c3nccs3)CC2)cc1",
    "quantitative.result": 61
  },
  {
    "compound": "CCC(=O)OC1=C(Br)C(=O)c2ccccc2C1=O",
    "quantitative.result": 68
  }
]

Please look at the items below and tell me growth inhibition for each one, in order.
1. CC(=O)Nc1ccc(-c2nnc(SCC(=O)Nc3ccc(Cl)cc3Cl)o2)cc1
2. CSCCOC(=O)c1cc(NC(=S)c2ccoc2C)ccc1Cl
3. CCOC1(OCC)Cc2nc3ccccc3cc21

Result:
1. 8
2. 85
3. 96

This collection of values is drawn from PubChem BioAssay (NCI).
